test: Drug excretion in human urine assessed as total amount of drug eliminated at 150 mg, iv administered as single dose measured for 72 hrs post-dose by high-performance liquid chromatography; type: ADME, organism-based; settings: read-out: Ae
measurement_label: dose excreted at 72 h (%)

>>> quantitative_result("NC(=O)N1c2ccccc2CC(O)c2ccccc21 (racemic) [LICARBAZEPINE]")
24.3

----------
assay: Apparent terminal half life in human plasma treated with oxcarbazepine at 300 mg, po administered as one-film coated tablet by high-performance liquid chromatography; assay type: ADME, organism-based; settings: read-out: betat1/2(app) (converted)
measurement_label: half-life (h)

>>> quantitative_result("NC(=O)N1c2ccccc2C[C@@H](O)c2ccccc21")
15.8
